Just for reference, ChEMBL document CHEMBL1821655 is where these values come from.

tested on: Mycobacterium tuberculosis; test: Antimycobacterial activity against Mycobacterium tuberculosis H37Rv ATCC 25618 after 10 to 14 days by microplate alamar blue assay; assay type: functional
METRIC: MIC
Please answer using the number first and the unit second.

compound=CC(C)=CCC/C(C)=C/CN1CCC(CN2CCC(Cc3ccccc3)CC2)CC1 result="20 µg/mL"
compound="OCC1CCCN(CC2CCN(CC(c3ccccc3)c3ccccc3)CC2)C1 (stereo not given)" result="40 µg/mL"
compound=OC1CCN(CC2CCN(CC34CC5CC(CC(C5)C3)C4)CC2)CC1 result="4 µg/mL"
compound=c1ccc(CC2CCN(CC3CCN(CCC45CC6CC(CC(C6)C4)C5)CC3)CC2)cc1 result="5 µg/mL"

Consider the additional compound presented here.
For this compound ( `OC1CCN(CC2CCN(CCC34CC5CC(CC(C5)C3)C4)CC2)CC1` ), measured MIC is 15 µg/mL
